Tested on: HMEC-1 (human microvascular endothelial cells)
Experiment: cytotoxicity MTT assay on HMEC-1
Format: cell-based
Settings: mean ± SD of three experiments in duplicate
Description: The long-term human microvascular endothelial cell line (HMEC-1) was maintained in MCDB 131 medium (Invitrogen, Milan, Italy) supplemented with 10% fetal calf serum (HyClone, Celbio, Milan, Italy), 10 ng/mL of epidermal growth factor,1 µg/ml of hydrocortisone, 2 mM glutamine and 20 mM Hepes buffer (EuroClone). […] Cells were then treated with serial dilutions of test compounds and cell proliferation evaluated using the MTT assay described for promastigotes. […]
VALUE_TYPE: pIC50
The quantity pIC50 is defined as the negative base-10 logarithm of the molar concentration.

Here is how some molecules turned out for pIC50.
Bench note, HMEC-1 (human microvascular endothelial cells): entry "CC1=CCC[C@H]2[C@](C)(CC3=CC(=O)C=CC3=O)[C@@H](C)CC[C@]12C" , its pIC50 = 4.21

Test item CC[C@@]1(O)C(=O)OCc2c1cc1n(c2=O)Cc2cc3ccccc3nc2-1 [Camptothecin, reference compound] ; HMEC-1 (human microvascular endothelial cells); reported pIC50 was 7.74

The measured pIC50 that "CC1=CCC[C@H]2[C@](C)(CC3=CC(=O)C4=C(C3=O)S(=O)(=O)CCN4)[C@@H](C)CC[C@]12C" showed for HMEC-1 (human microvascular endothelial cells) is 5.48

***
For "CC1=CCC[C@H]2[C@](C)(Cc3cc(O)ccc3O)[C@@H](C)CC[C@]12C" on HMEC-1 (human microvascular endothelial cells), measured pIC50 was 4.43
